system: mouse bone marrow cells; assay: Metabolism promoting action on mouse bone marrow cells (mitochondrial metabolism activity, MTT reduction method); format: cell-based, BALB/c mouse; conditions: Mus musculus, Bone marrow cell, 120 h; Test compound concentration 6.25 µg/ml; 5 days; magnitude of metabolism, no test compound = one
reportedMetric: activity at 6.25 µg/mL (%)
Please respond with the number in % and leave the unit unwritten.

Return reported activity at 6.25 µg/mL; argument: COc1cc2c(c(OC)c1CC=C(C)C)CC(c1ccc(OCc3ccccc3)cc1OCc1ccccc1)CO2 (centres unmarked)
152

Return reported activity at 6.25 µg/mL; argument: COc1ccc(C2COc3cc(OC)cc(OC)c3C2)c(OC)c1 (centres unmarked)
118

Return reported activity at 6.25 µg/mL; argument: COc1cc2c(c(OC)c1CCC(C)C)CC(c1ccc(O)cc1O)CO2 (centres unmarked)
88

Return reported activity at 6.25 µg/mL; argument: COc1c2c(cc(OC(C)C)c1CCC(C)C)OCC(c1ccc(O)c(CCC(C)C)c1OC(C)C)C2 (centres unmarked)
89

Return reported activity at 6.25 µg/mL; argument: COc1cc2c(c(OC)c1C=CC(C)C)CC(c1ccc(O)cc1O)CO2 (centres unmarked)
45

Data credit: patent EP1057825A1
